- method summary: Biodistribution of radiometal-DOTA-BBN conjugates in CF1 normal mice
- experimental context: 1 hour post-injection
metric: Avg % ID/gm, Lung (% ID/gm)
Report only the number, with the unit % ID/gm understood.

Example cases with answers are listed next.
CSCC[C@H](NC(=O)[C@H](CC(C)C)NC(=O)[C@H](Cc1cnc[nH]1)NC(=O)CNC(=O)[C@@H](NC(=O)[C@H](C)NC(=O)[C@H](Cc1c[nH]c2ccccc12)NC(=O)[C@H](CCC(N)=O)NC(=O)CCCCCCCNC(=O)CN1CCN(CC(=O)O)CCN(CC(=O)O)CCN(CC(=O)O)CC1)C(C)C)C(N)=O [111In-DOTA-8-Aoc-BBN[7-14]NH2] [metal not drawn]: 0.31
CSCC[C@H](NC(=O)[C@H](CC(C)C)NC(=O)[C@H](Cc1c[nH]cn1)NC(=O)CNC(=O)[C@@H](NC(=O)[C@H](C)NC(=O)[C@H](Cc1c[nH]c2ccccc12)NC(=O)[C@H](CCC(N)=O)NC(=O)CCCCCCCCCCNC(=O)CN1CCN(CC(=O)O)CCN(CC(=O)O)CCN(CC(=O)O)CC1)C(C)C)C(N)=O [111In-DOTA-11-Aun-BBN[7-14]NH2] [metal not drawn]: 0.26
CSCC[C@H](NC(=O)[C@H](CC(C)C)NC(=O)[C@H](Cc1c[nH]cn1)NC(=O)CNC(=O)[C@@H](NC(=O)[C@H](C)NC(=O)[C@H](Cc1c[nH]c2ccccc12)NC(=O)[C@H](CCC(N)=O)NC(=O)CCCCNC(=O)CN1CCN(CC(=O)O)CCN(CC(=O)O)CCN(CC(=O)O)CC1)C(C)C)C(N)=O [149Pm-DOTA-5-Ava-BBN[7-14]NH2]: 0.78

Incoming: What value of Avg % ID/gm, Lung has been recorded for this entry: CSCC[C@H](NC(=O)[C@H](CC(C)C)NC(=O)[C@H](Cc1c[nH]cn1)NC(=O)CNC(=O)[C@@H](NC(=O)[C@H](C)NC(=O)[C@H](Cc1c[nH]c2ccccc12)NC(=O)[C@H](CCC(N)=O)NC(=O)CCCCCCCCCCNC(=O)CN1CCN(CC(=O)O)CCN(CC(=O)O)CCN(CC(=O)O)CC1)C(C)C)C(N)=O [177Lu-DOTA-11-Aun-BBN[7-14]NH2] [metal not drawn]
Outgoing: 0.73

Incoming: Endpoint output: Avg % ID/gm, Lung of CSCC[C@H](NC(=O)[C@H](CC(C)C)NC(=O)[C@H](Cc1cnc[nH]1)NC(=O)CNC(=O)[C@@H](NC(=O)[C@H](C)NC(=O)[C@H](Cc1c[nH]c2ccccc12)NC(=O)[C@H](CCC(N)=O)NC(=O)CCNC(=O)CN1CCN(CC(=O)O)CCN(CC(=O)O)CCN(CC(=O)O)CC1)C(C)C)C(N)=O [149Pm-DOTA-β-Ala-BBN[7-14]NH2] . Value?
Outgoing: 0.34

* * *

- method summary: Biodistribution of radiometal-DOTA-BBN conjugates in CF1 normal mice
- experimental context: 1 hour post-injection
Overview of recorded Avg % ID, Carcass for various compounds
Please report the result as a number followed by the unit.

CSCC[C@H](NC(=O)[C@H](CC(C)C)NC(=O)[C@H](Cc1cnc[nH]1)NC(=O)CNC(=O)[C@@H](NC(=O)[C@H](C)NC(=O)[C@H](Cc1c[nH]c2ccccc12)NC(=O)[C@H](CCC(N)=O)NC(=O)CN1CCN(CC(=O)O)CCN(CC(=O)O)CCN(CC(=O)O)CC1)C(C)C)C(N)=O [177Lu-DOTA-0-BBN[7-14]NH2] [metal not drawn]: 4.34 ± 2.64 % ID
CSCC[C@H](NC(=O)[C@H](CC(C)C)NC(=O)[C@H](Cc1cnc[nH]1)NC(=O)CNC(=O)[C@@H](NC(=O)[C@H](C)NC(=O)[C@H](Cc1c[nH]c2ccccc12)NC(=O)[C@H](CCC(N)=O)NC(=O)CCCCCCCNC(=O)CN1CCN(CC(=O)O)CCN(CC(=O)O)CCN(CC(=O)O)CC1)C(C)C)C(N)=O [149Pm-DOTA-8-Aoc-BBN[7-14]NH2]: 10.30 ± 1.84 % ID
CSCC[C@H](NC(=O)[C@H](CC(C)C)NC(=O)[C@H](Cc1c[nH]cn1)NC(=O)CNC(=O)[C@@H](NC(=O)[C@H](C)NC(=O)[C@H](Cc1c[nH]c2ccccc12)NC(=O)[C@H](CCC(N)=O)NC(=O)CCCCNC(=O)CN1CCN(CC(=O)O)CCN(CC(=O)O)CCN(CC(=O)O)CC1)C(C)C)C(N)=O [177Lu-DOTA-5-Ava-BBN[7-14]NH2] [metal not drawn]: 2.77 ± 0.75 % ID
CSCC[C@H](NC(=O)[C@H](CC(C)C)NC(=O)[C@H](Cc1cnc[nH]1)NC(=O)CNC(=O)[C@@H](NC(=O)[C@H](C)NC(=O)[C@H](Cc1c[nH]c2ccccc12)NC(=O)[C@H](CCC(N)=O)NC(=O)CCNC(=O)CN1CCN(CC(=O)O)CCN(CC(=O)O)CCN(CC(=O)O)CC1)C(C)C)C(N)=O [177Lu-DOTA-β-Ala-BBN[7-14]NH2] [metal not drawn]: 2.73 ± 1.08 % ID
CSCC[C@H](NC(=O)[C@H](CC(C)C)NC(=O)[C@H](Cc1c[nH]cn1)NC(=O)CNC(=O)[C@@H](NC(=O)[C@H](C)NC(=O)[C@H](Cc1c[nH]c2ccccc12)NC(=O)[C@H](CCC(N)=O)NC(=O)CCCCNC(=O)CN1CCN(CC(=O)O)CCN(CC(=O)O)CCN(CC(=O)O)CC1)C(C)C)C(N)=O [111In-DOTA-5-Ava-BBN[7-14]NH2] [metal not drawn]: 3.15 ± 0.70 % ID
CSCC[C@H](NC(=O)[C@H](CC(C)C)NC(=O)[C@H](Cc1cnc[nH]1)NC(=O)CNC(=O)[C@@H](NC(=O)[C@H](C)NC(=O)[C@H](Cc1c[nH]c2ccccc12)NC(=O)[C@H](CCC(N)=O)NC(=O)CN1CCN(CC(=O)O)CCN(CC(=O)O)CCN(CC(=O)O)CC1)C(C)C)C(N)=O [149Pm-DOTA-0-BBN[7-14]NH2]: 1.98 ± 2.27 % ID
CSCC[C@H](NC(=O)[C@H](CC(C)C)NC(=O)[C@H](Cc1cnc[nH]1)NC(=O)CNC(=O)[C@@H](NC(=O)[C@H](C)NC(=O)[C@H](Cc1c[nH]c2ccccc12)NC(=O)[C@H](CCC(N)=O)NC(=O)CCCCCCCNC(=O)CN1CCN(CC(=O)O)CCN(CC(=O)O)CCN(CC(=O)O)CC1)C(C)C)C(N)=O [111In-DOTA-8-Aoc-BBN[7-14]NH2] [metal not drawn]: 5.01 ± 0.47 % ID
CSCC[C@H](NC(=O)[C@H](CC(C)C)NC(=O)[C@H](Cc1cnc[nH]1)NC(=O)CNC(=O)[C@@H](NC(=O)[C@H](C)NC(=O)[C@H](Cc1c[nH]c2ccccc12)NC(=O)[C@H](CCC(N)=O)NC(=O)CCCCCCCNC(=O)CN1CCN(CC(=O)O)CCN(CC(=O)O)CCN(CC(=O)O)CC1)C(C)C)C(N)=O [177Lu-DOTA-8-Aoc-BBN[7-14]NH2] [metal not drawn]: 4.95 ± 1.41 % ID

Could you now look at the following compound, please?
Incoming: Record request: Avg % ID, Carcass value, item CSCC[C@H](NC(=O)[C@H](CC(C)C)NC(=O)[C@H](Cc1c[nH]cn1)NC(=O)CNC(=O)[C@@H](NC(=O)[C@H](C)NC(=O)[C@H](Cc1c[nH]c2ccccc12)NC(=O)[C@H](CCC(N)=O)NC(=O)CCCCCCCCCCNC(=O)CN1CCN(CC(=O)O)CCN(CC(=O)O)CCN(CC(=O)O)CC1)C(C)C)C(N)=O [177Lu-DOTA-11-Aun-BBN[7-14]NH2] [metal not drawn]
Outgoing: 6.69 ± 2.48 % ID

* * *

- method summary: Biodistribution of radiometal-DOTA-BBN conjugates in CF1 normal mice
- experimental context: 1 hour post-injection
# Avg % ID, Muscle per record follows
Express it in % ID; write the number only.

# example entries with known answers
CSCC[C@H](NC(=O)[C@H](CC(C)C)NC(=O)[C@H](Cc1cnc[nH]1)NC(=O)CNC(=O)[C@@H](NC(=O)[C@H](C)NC(=O)[C@H](Cc1c[nH]c2ccccc12)NC(=O)[C@H](CCC(N)=O)NC(=O)CCCCCCCNC(=O)CN1CCN(CC(=O)O)CCN(CC(=O)O)CCN(CC(=O)O)CC1)C(C)C)C(N)=O [149Pm-DOTA-8-Aoc-BBN[7-14]NH2]: 0.01
CSCC[C@H](NC(=O)[C@H](CC(C)C)NC(=O)[C@H](Cc1cnc[nH]1)NC(=O)CNC(=O)[C@@H](NC(=O)[C@H](C)NC(=O)[C@H](Cc1c[nH]c2ccccc12)NC(=O)[C@H](CCC(N)=O)NC(=O)CCNC(=O)CN1CCN(CC(=O)O)CCN(CC(=O)O)CCN(CC(=O)O)CC1)C(C)C)C(N)=O [111In-DOTA-β-Ala-BBN[7-14]NH2] [metal not drawn]: 0.01

Incoming: For CSCC[C@H](NC(=O)[C@H](CC(C)C)NC(=O)[C@H](Cc1c[nH]cn1)NC(=O)CNC(=O)[C@@H](NC(=O)[C@H](C)NC(=O)[C@H](Cc1c[nH]c2ccccc12)NC(=O)[C@H](CCC(N)=O)NC(=O)CCCCNC(=O)CN1CCN(CC(=O)O)CCN(CC(=O)O)CCN(CC(=O)O)CC1)C(C)C)C(N)=O [149Pm-DOTA-5-Ava-BBN[7-14]NH2] , what is its reported Avg % ID, Muscle?
Outgoing: 0.03

The reported numbers originate from patent US20060067886A1.
